System: 786-0 renal
ASSAY_INFO: NCI tumour cell line growth inhibition, 48 h
REPORTED_METRIC: GI50

INSERT INTO measurements (compound, system_under_test, reported_metric, value) VALUES
  ('CN1CC[C@H](N(C)C(=O)N2CC(c3cc(F)ccc3F)=C[C@@]2(CO)c2ccccc2)[C@H](F)C1', '786-0 renal', 'GI50', '0.0072 µM');

# input Which value of GI50 has been reported for CC(=O)Nc1ccc(S(=O)(=O)N2C(=O)CCC2C(=O)Nc2ccccc2)cc1 (stereo not given) in the records?
# output 1.42 µM

# input Which value of GI50 has been reported for `N#CCC1CCN(c2nc(Nc3ccc(N4CCC(O)CC4)cc3)c3c(=O)[nH]ncc3n2)CC1` in the records?
# output 0.82 µM

# input Which value of GI50 has been reported for `COc1ccc2c(c1)c(-c1nc(-c3cn(C)c4ncccc34)cs1)cn2CCCCN1CCCCC1` in the records?
# output 1.61 µM

# input Which value of GI50 has been reported for `COC(=O)[C@@H](C)C[C@H](Cc1ccccc1)NC(=O)c1nc([C@@H](C[C@H](C(C)C)N(C)C(=O)[C@@H](NC(=O)[C@H]2CC(=O)CCN2C)C(C)C)OC(C)=O)sc1C(C)C` in the records?
# output 0.347 µM

====

Tested on: OVCAR-5 ovarian
ASSAY_INFO: NCI tumour cell line growth inhibition, 48 h
# Lookup of reported GI50 keyed by entry

Here's what some known entries look like.
INSERT INTO assay_data (compound, value) VALUES
  ('Nc1nc(-c2ccccn2)c(-c2ccc3ncccc3n2)s1', '> 25 µM'),
  ('FC(F)(F)c1ccc(-c2cnc(-c3nn[nH]n3)nc2NC2CCCCCC2)cc1', '> 10 µM'),
  ('COc1cc(-c2nn(-c3cccc(NC(=O)NCCNC(=O)c4ccccc4)c3)cc2-c2ccncc2)ccc1Cl', '3.78 µM'),
  ('N=C(N)c1ccc(-c2ccc(-c3cccs3)s2)cc1F', '1.02 µM'),
  ('O=c1[nH]c2c(ccc3cnccc32)c2c1CCC2', '0.461 µM');

Below: the item to evaluate.
# input Which value of GI50 has been reported for CC1SC(c2ccc(OCc3ccccc3)cc2)N(NC(=O)C(O)(c2ccccc2)c2ccccc2)C1=O (stereo unspecified) in the records?
# output 3.81 µM

====

Test system: SF-539 CNS
ASSAY_INFO: NCI tumour cell line growth inhibition, 48 h
REPORTED_METRIC: TGI

INSERT INTO assay_data (compound, reported_metric, value) VALUES
  ('COc1ccccc1Nc1nc(N)nc(N)c1N', 'TGI', '> 100 µM');

# input Find the measured TGI: item `O=C(O)CN1CCN2CCOCCN(CC1)CCN(CC(=O)O)CC2` , target or system SF-539 CNS.
# output > 100 µM

# input Find the measured TGI: item `C=C(C)[C@@H]1CC[C@]2(C(=O)OC)CC[C@]3(C)[C@H](CC[C@@H]4[C@@]5(C)CC/C(=N\OCCC(=NCCC#N)NOCCC#N)C(C)(C)[C@@H]5CC[C@]43C)[C@@H]12` , target or system SF-539 CNS.
# output > 50 µM

# input Find the measured TGI: item COc1cc2c(cc1O)CCN[C@@]21CS[C@H]2c3c(OC(C)=O)c(C)c4c(c3C(COC1=O)N1C2C2NC(Cc3cc(C)c(OC)c(O)c32)[C@@H]1C#N)OCO4 (some centres undefined) , target or system SF-539 CNS.
# output < 0.01 µM
